Ref: patent US12139492B2

What Dmax was measured for each of the following?
experimental.system: BTK (Homo sapiens)
protocol.text: Degradation of BTK protein in Namalwa cells (Western blot; DC50, Dmax)

Worked examples follow.
Nc1ncnc2c1c(-c1ccc(Oc3ccccc3)cc1)nn2C1CCN(C2CCN(C(=O)N3CCC(CN4CCC(c5ccc6c(c5)CN(C5CCC(=O)NC5=O)C6=O)CC4)CC3)CC2)CC1 (centres unmarked) ... > 90%
Nc1ncnc2c1c(-c1ccc(Oc3ccccc3)cc1)nn2C1CCN(C2CCN(CCCC3CCN(c4ccc5c(c4)CN(C4CCC(=O)NC4=O)C5=O)CC3)CC2)CC1 (centres unmarked) ... > 75%
NC(=O)c1c(-c2ccc(Oc3ccccc3)cc2)nn2c1NCCC2C1CCN(CCOCCOCCN2CCN(c3ccc4c(c3)C(=O)N(C3CCC(=O)NC3=O)C4=O)CC2)CC1 (centres unmarked) ... > 90%
Nc1ncnc2c1c(-c1ccc(Oc3ccccc3)cc1)nn2C1CCN(C2CCN(CCC3CCN(c4ccc5c(c4)CN(C4CCC(=O)NC4=O)C5=O)CC3)CC2)CC1 (centres unmarked) ... > 75%

Consider the additional molecule presented here.
Prompt: What does the data say about its Dmax? Entry: Nc1ncnc2c1c(-c1ccc(Oc3ccccc3)cc1)nn2C1CCN(C2CCN(C(=O)N3CCC(CCCN4CCN(c5ccc6c(c5)C(=O)N(C5CCC(=O)NC5=O)C6=O)CC4)CC3)CC2)CC1 (centres unmarked)
Completion: > 90%

====

experimental.system: BTK (Homo sapiens, UniProt Q06187)
Sequence (Q06187 whole entry): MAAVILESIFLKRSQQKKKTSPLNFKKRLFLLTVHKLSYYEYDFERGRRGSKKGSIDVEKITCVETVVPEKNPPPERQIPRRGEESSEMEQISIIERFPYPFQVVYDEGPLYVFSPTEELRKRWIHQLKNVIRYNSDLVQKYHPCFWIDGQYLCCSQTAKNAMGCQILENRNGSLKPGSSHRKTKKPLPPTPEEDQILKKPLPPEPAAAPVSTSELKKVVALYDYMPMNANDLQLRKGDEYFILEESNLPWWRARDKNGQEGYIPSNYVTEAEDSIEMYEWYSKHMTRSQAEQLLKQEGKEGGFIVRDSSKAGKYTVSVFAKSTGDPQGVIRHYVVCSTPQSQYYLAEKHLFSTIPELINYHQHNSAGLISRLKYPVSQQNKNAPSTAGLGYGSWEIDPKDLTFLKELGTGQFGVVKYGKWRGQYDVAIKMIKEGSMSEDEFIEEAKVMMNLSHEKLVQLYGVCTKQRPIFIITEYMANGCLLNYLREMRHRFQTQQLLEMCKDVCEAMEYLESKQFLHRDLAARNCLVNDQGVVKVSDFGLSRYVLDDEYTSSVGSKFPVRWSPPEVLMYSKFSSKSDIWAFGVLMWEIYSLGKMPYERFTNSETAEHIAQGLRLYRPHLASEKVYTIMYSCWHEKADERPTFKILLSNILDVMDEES
protocol.text: Degradation of BTK protein in Namalwa cells (Western blot; DC50, Dmax)
run.conditions: read-out: DC50 (BTK degradation); concentration giving 50% reduction of BTK expression level; cell line not given
What DC50 was measured for each of the following?

Worked examples follow.
Nc1ncnc2c1c(-c1ccc(Oc3ccccc3)cc1)nn2C1CCN(CCCCC#Cc2ccc(N3CCC(=O)NC3=O)cc2)CC1 ... > 50 nM
NC(=O)c1c(-c2ccc(Oc3ccccc3)cc2)nn2c1NCC[C@H]2C1CCN(C2CCN(C(=O)N3CCC(CC4CCN(c5ccc6c(c5)CN(C5CCC(=O)NC5=O)C6=O)CC4)CC3)CC2)CC1 (stereo partly drawn) ... 10 to 50 nM

Working through the 2 compounds below one at a time, give DC50 for each.
1. Nc1ncnc2c1c(-c1ccc(Oc3ccccc3)cc1)nn2C1CCN(C2CCN(CCCN3CCN(c4ccc(N5CCC(=O)NC5=O)cc4)CC3)CC2)CC1
2. Nc1ncnc2c1c(-c1ccc(Oc3ccccc3)cc1)nn2[C@@H]1CCCN(C(=O)N2CC(N3CCN(c4ccc5c(c4)C(=O)N([C@@H]4CCC(=O)NC4=O)C5=O)CC3)C2)C1

Completion:
1. 10 to 50 nM
2. 10 to 50 nM

====

experimental.system: BTK (Homo sapiens)
protocol.text: Degradation of BTK protein in Namalwa cells (Western blot; DC50, Dmax)
run.conditions: read-out: DC50 (BTK degradation); concentration giving 50% reduction of BTK expression level; cell line not given
assay.endpoint: DC50

Worked examples follow.
Nc1ncnc2c1c(-c1ccc(Oc3ccccc3)cc1)nn2C1CCN(C2CCN(CC3CCN(c4ccc(N5CCC(=O)NC5=O)cc4)CC3)CC2)CC1 ... > 50 nM
Nc1ncnc2c1c(-c1ccc(Oc3ccccc3)cc1)nn2C1CCN(CCN2CCC(CN3CCN(c4ccc(N5CCC(=O)NC5=O)cc4)CC3)C2)CC1 (centres unmarked) ... < 10 nM
NC(=O)c1c(-c2ccc(Oc3ccccc3)cc2)nn2c1NCC[C@H]2C1CCN(CC2CCN(C(=O)N3CCC(CN4CCN(c5ccc6c(c5)CN(C5CCC(=O)NC5=O)C6=O)CC4)CC3)CC2)CC1 (some centres unmarked) ... < 10 nM
Nc1ncnc2c1c(-c1ccc(Oc3ccccc3)cc1)nn2C1CCN(C2CCN(CC3CCN(CC4CN(c5ccc6c(c5)C(=O)N(C5CCC(=O)NC5=O)C6=O)C4)CC3)CC2)CC1 (centres unmarked) ... < 10 nM
Nc1ncnc2c1c(-c1ccc(Oc3ccccc3)cc1)nn2C1CCN(C(=O)NCCN2CCN(c3ccc4c(c3)CN(C3CCC(=O)NC3=O)C4=O)CC2)CC1 (centres unmarked) ... < 10 nM

Working through the 2 compounds below one at a time, give DC50 for each.
1. Nc1ncnc2c1c(-c1ccc(Oc3ccccc3)cc1)nn2C1CCN(C2CCN(CCCN3CCN(c4ccc(N5CCC(=O)NC5=O)cc4)CC3)C2)CC1 (centres unmarked)
2. Nc1ncnc2c1c(-c1ccc(Oc3ccccc3)cc1)nn2C1CCN(C2CCN(CC3CCN(CC4CN(c5ccc6c(c5)CN(C5CCC(=O)NC5=O)C6=O)C4)CC3)CC2)CC1 (centres unmarked)

Completion:
["< 10 nM", "< 10 nM"]

Working through the 4 compounds below one at a time, give DC50 for each.
1. Nc1ncnc2c1c(-c1ccc(Oc3ccccc3)cc1)nn2C1CCN(CC2CCN(CCCC(=O)N3CCC(c4ccc5c(c4)CN(C4CCC(=O)NC4=O)C5=O)CC3)CC2)CC1 (centres unmarked)
2. NC(=O)c1c(-c2ccc(Oc3ccccc3)cc2)nn2c1NCC[C@H]2C1CCN(CC2CCN(C(=O)N3CCC(N4CCC(c5ccc6c(c5)C(=O)N(C5CCC(=O)NC5=O)C6=O)CC4)CC3)CC2)CC1 (some centres unmarked)
3. Nc1ncnc2c1c(-c1ccc(Oc3ccccc3)cc1)nn2C1CCN(CCN2CC(CN3CCN(c4ccc5c(c4)C(=O)N(C4CCC(=O)NC4=O)C5=O)CC3)C2)CC1 (centres unmarked)
4. Nc1ncnc2c1c(-c1ccc(Oc3ccccc3)cc1)nn2C1CCN([C@H]2CCN(CC3CCN(c4ccc5c(c4)C(=O)N(C4CCC(=O)NC4=O)C5=O)CC3)C2)CC1 (some centres unmarked) [Compound 449a]

Completion:
["< 10 nM", "10 to 50 nM", "< 10 nM", "< 10 nM"]
